Would you kindly list half-life at 5 μM for each of these compounds?
# method-description: In vitro plasma stability, rat plasma
# Assay type: in vitro ADME
# run-conditions: male, pH 7.4, 5 μM, 37° C., sampling 0-360 minutes, read-out: T1/2 Rat
Answer shape: numeric part, then the unit.

Here are 2 compounds together with their reported answers.
compound: CC1=NN(C(C)C)C(=O)C1(NO)c1ccccc1 (stereo not drawn)
half-life at 5 μM: 32 min

compound: CN1N=C(c2ccccc2F)C(C)(NO)C1=O (stereo not drawn)
half-life at 5 μM: 37 min

Briefly, half-life at 5 μM measured for C/C(=N\Oc1ccccc1)C1(NO)C(=O)N(C)N=C1C(C)(C)C (stereo not drawn) : 91 min

* * *

# method-description: In vitro plasma stability, dog plasma
# Type: in vitro ADME
# run-conditions: male, pH 7.4, 5 μM, 37° C., sampling 0-360 minutes, read-out: T1/2 Dog
readout-label: half-life at 5 μM (min)
Numbers only, in min.

Can you give me half-life at 5 μM for all of these, one by one?
1. CN1N=C(c2ccc(S(C)(=O)=O)c(N(C)C)c2)C(C)(NO)C1=O (stereo not shown)
2. CC(C)N1N=C(c2ccccc2Cl)C(C)(NO)C1=O (stereo not shown)
3. CN1N=C(c2ccc(C(N)=O)cc2)C(C)(NO)C1=O (stereo not shown)
4. CO/N=C(\C)C1(NO)C(=O)N(C(C)C)N=C1C(C)(C)C (stereo not shown)
5. CCOC1=NN(c2ccccc2)C(=O)C1(NO)/C(C)=N/OC (stereo not shown)
6. CN1N=C(c2ccc(S(=O)(=O)C(F)(F)F)cc2)C(C)(NO)C1=O (stereo not shown)
7. CN1N=C(c2ccc(S(C)(=O)=O)cc2)C(C)(NO)C1=O (stereo not shown)
8. CC1(NO)C(=O)N(c2ccc(Br)cc2)N=C1c1ccccc1Cl (stereo not shown)

1: 42; 2: 170; 3: 166; 4: 87; 5: 12; 6: 25; 7: 66; 8: 26

Could you report half-life at 5 μM for every entry in the following list?
1. CN1N=C(c2ccc(C(F)(F)F)cc2)C(C)(NO)C1=O (stereo not shown)
2. CO/N=C(\C)C1(NO)C(=O)N(C)N=C1c1ccc(OC)cc1 (stereo not shown)
3. CC1=NN(C)C(=O)C1(NO)c1ccc(Cl)cc1 (stereo not shown)
4. CN1N=C(c2ccc(C(=O)N3CCOCC3)cc2)C(C)(NO)C1=O (stereo not shown)
5. CO/N=C(\C)C1(NO)C(=O)N(C)N=C1c1ccccc1 (stereo not shown)
6. COc1cc(C2=NN(C)C(=O)C2(C)NO)ccc1S(C)(=O)=O (stereo not shown)

69
10
7
84
12
37

Here are 4 compounds. What values of half-life at 5 μM were reported for them?
1. CN1N=C(c2ccccc2)C(NO)(c2ccccc2)C1=O (stereo not shown)
2. CC(C)(C)C1=NN(c2ccccc2)C(=O)C1(C)NO (stereo not shown)
3. CN1N=C(c2ccc(C(=O)O)cc2)C(C)(NO)C1=O (stereo not shown)
4. CC1=NN(C(C)C)C(=O)C1(NO)c1ccccc1 (stereo not shown)

11
120
175
84

Look at each compound and report its half-life at 5 μM.
1. Cc1cc(C2=NN(C)C(=O)C2(C)NO)cc(C)c1S(C)(=O)=O (stereo not shown)
2. CN1N=C(c2ccccc2Cl)C(C)(NO)C1=O (stereo not shown)

1. 49
2. 72

// for each compound in input: emit half-life at 5 μM
1. CN(C)C(=O)c1ccc(C2(NO)C(=O)N(C)N=C2C(C)(C)C)cc1 (stereo not shown)
2. CN(C)C(=O)c1ccc(C2=NN(C)C(=O)C2(C)NO)cc1 (stereo not shown)
3. CN1N=C(c2cc(F)c(S(C)(=O)=O)c(F)c2)C(C)(NO)C1=O (stereo not shown)
4. C/C(=N\Oc1ccccc1)C1(NO)C(=O)N(C)N=C1C(C)(C)C (stereo not shown)
5. CC1=NN(C)C(=O)C1(NO)c1ccc(S(C)(=O)=O)cc1 (stereo not shown)

1: 45; 2: 100; 3: 31; 4: 118; 5: 3

* * *

# method-description: In vitro plasma stability, dog plasma
# Type: in vitro ADME
# run-conditions: male, pH 7.4, 5 μM, 37° C., sampling 0-360 minutes, read-out: T1/2 Dog
readout-label: half-life at 5 μM (min)
One number for each entry, in min.

Here are 2 molecules. What values of half-life at 5 μM were reported for them?
1. C/C(=N\OC(C)(C)C)C1(NO)C(=O)N(C)N=C1C(C)(C)C (stereo not drawn) [Compound 117]
2. COCCN(C)S(=O)(=O)c1ccc(C2=NN(C)C(=O)C2(C)NO)cc1 (stereo not drawn) [Compound 90]

1: 34; 2: 37

* * *

# method-description: In vitro plasma stability, rat plasma
# Format: in vitro ADME
# run-conditions: male, pH 7.4, 5 μM, 37° C., sampling 0-360 minutes, read-out: T1/2 Rat
Kindly supply the reported half-life at 5 μM values for the records listed here.
Returns: string containing the numeric result and its unit.

Please review the entries below; each comes with its answer.
compound: CO/N=C(\C)C1(NO)C(=O)N(C)N=C1c1ccc(S(=O)(=O)N(C)C)cc1 (stereo not shown)
half-life at 5 μM: 8 min
//
compound: CN1N=C(c2cc(Cl)cc(Cl)c2)C(C)(NO)C1=O (stereo not shown)
half-life at 5 μM: 17 min
//
compound: CO/N=C(\C)C1(NO)C(=O)N(c2ccccc2)N=C1Sc1ccccc1 (stereo not shown)
half-life at 5 μM: 7 min
//
compound: CN1N=C(c2ccc(S(C)(=N)=O)cc2)C(C)(NO)C1=O (stereo not shown)
half-life at 5 μM: 113 min
//
compound: CN1N=C(c2ccc([S+]([O-])C(F)(F)F)cc2)C(C)(NO)C1=O (stereo not shown)
half-life at 5 μM: 79 min

For the 7 compounds below, give their half-life at 5 μM values.
1. CCOC1=NN(C)C(=O)C1(NO)/C(C)=N/OCc1ccccc1 (stereo not shown)
2. CN1N=C(c2ccc(S(=O)(=O)C(F)(F)F)cc2)C(C)(NO)C1=O (stereo not shown)
3. CC1=NN(C)C(=O)C1(NO)c1ccc(Cl)cc1 (stereo not shown)
4. CC(C)N1N=C(c2ccccc2F)C(C)(NO)C1=O (stereo not shown)
5. CN1N=C(c2cc(F)c(S(C)(=O)=O)c(F)c2)C(C)(NO)C1=O (stereo not shown)
6. CC1=NN(C)C(=O)C1(NO)/C(C)=N/OCC(C)C (stereo not shown)
7. CN1N=C(c2ccc(S(C)(=O)=O)c(C(F)(F)F)c2)C(C)(NO)C1=O (stereo not shown)

1. 15 min
2. 28 min
3. 7 min
4. 42 min
5. 25 min
6. 4 min
7. 23 min

Could I get half-life at 5 μM for every one of these entries?
1. Cc1cc(C2=NN(C)C(=O)C2(C)NO)ccc1[S+](C)[O-] (stereo not shown)
2. CO/N=C(\C)C1(NO)C(=O)N(c2ccccc2)N=C1OC (stereo not shown)
3. CN1N=C(C(C)(C)C)C(NO)(c2ccc(S(=O)(=O)N(C)C)cc2)C1=O (stereo not shown)
4. CO/N=C(\C)C1(NO)C(=O)N(C)N=C1c1ccc(S(C)(=O)=O)cc1 (stereo not shown)
5. CN1N=C(c2ccc(F)cc2Cl)C(C)(NO)C1=O (stereo not shown)
6. CCOC1=NN(c2ccccc2)C(=O)C1(NO)/C(C)=N/OC (stereo not shown)

["134 min", "48 min", "34 min", "9 min", "20 min", "62 min"]

Record half-life at 5 μM for all entries; do not skip any.
1. CO/N=C(\C)C1(NO)C(=O)NN=C1C(C)(C)C (stereo not shown)
2. CO/N=C(\C)C1(NO)C(=O)N(c2ccccc2)N=C1C(C)(C)C (stereo not shown)
3. CN1N=C(c2ccc(S(C)(=O)=NC(=O)C(F)(F)F)cc2)C(C)(NO)C1=O (stereo not shown)
4. CCO/N=C(\C)C1(NO)C(=O)NN=C1C(C)(C)C (stereo not shown)

["24 min", "17 min", "9 min", "20 min"]

* * *

# method-description: In vitro plasma stability, dog plasma
# Type: in vitro ADME
# run-conditions: male, pH 7.4, 5 μM, 37° C., sampling 0-360 minutes, read-out: T1/2 Dog
readout-label: half-life at 5 μM

Example compounds with recorded half-life at 5 μM:
compound: CO/N=C(\C)C1(NO)C(=O)N(C)N=C1C(C)C (stereo not drawn)
readout-label: half-life at 5 μM
reported-measurement: > 360 min
--
compound: CC1=NN(C)C(=O)C1(NO)c1noc(-c2ccccc2)n1 (stereo not drawn)
readout-label: half-life at 5 μM
reported-measurement: < 1 min

We next turn to a different compound, shown below.
Looking up CO/N=C(\C)C1(NO)C(=O)N(c2ccccc2)N=C1[S+]([O-])c1ccccc1 (stereo not drawn) , I see its half-life at 5 μM listed as < 1 min
